The origin of these recorded values is patent US20030068675.

- target-under-test: T1, ZFP SBS#507 (synthetic)
- T1 chain: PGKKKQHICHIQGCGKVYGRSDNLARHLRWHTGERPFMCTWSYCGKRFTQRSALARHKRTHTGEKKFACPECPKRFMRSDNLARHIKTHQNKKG
- measurement-description: EMSA
- condition-description: tags: MBP fusion
assay-readout: Kd (nM)
Numbers only, in nM.

For record GAGGTAGAGG (dsDNA) DNA 1: GAGGTAGAGG DNA 2: CCTCTACCTC the listed Kd is 10
